src = patent US20220185811A1

Here the recorded Cmax is given for each entry.
testDescription: Pharmacokinetics in male SD rats, single intragastric administration
Format: in vivo
conditionLabel: rat, po, 5 mg/kg suspension, plasma, first PK table
Description: Male SD rats (Beijing Vital River Laboratory Animal Technology Co., Ltd.) were divided into groups of 3 rats each. The rats were subjected to 5 mg/kg suspension of the test sample by single intragastric administration, respectively. Animals were fasted overnight prior to the experiment from 10 h before dosing to 4 h after dosing. […] Samples in the plasma were extracted using protein precipitation and the extracts were analyzed by LC/MS/MS. […]

Q: Give Cmax for C=CC(=O)N[C@H]1CCOC[C@H]1Nc1ncc2cc(-c3c(Cl)c(OC)cc(OC)c3Cl)ccc2n1 [Blu-554, reference compound]
Result: 362 ng/mL

Q: Tell me Cmax reported for CC#CC(=O)Nc1cc(-c2cc3c(cn2)cc(-c2c(Cl)c(OC)cc(OC)c2Cl)c2nccn23)c(OC)cc1N1C[C@@H]2C[C@H]1CO2 [Example 27]
Result: 452 ng/mL

Q: Recall and state the measured Cmax for C=CC(=O)Nc1cc(-c2cc3c(cn2)cc(-c2c(Cl)c(OC)cc(OC)c2Cl)c2nccn23)c(OC)cc1N1C2CCC1COC2 [Example 6] .
Result: 236 ng/mL

====

Listing of recorded AUC(0-inf) by entry.
testDescription: Pharmacokinetics in male SD rats, single intragastric administration
Assay type: in vivo
conditionLabel: rat, po, 5 mg/kg suspension, plasma, second PK table
I only need the number, in ng·h/mL, no unit after it.

Known results for molecules:
molecule | unitSymbol | AUC(0-inf)
C=CC(=O)Nc1cc(-c2cc3c(cn2)cc(-c2c(Cl)c(OC)cc(OC)c2Cl)c2nccn23)c(OC)cc1N1CCC2(CCOC2)C1 (stereo not drawn) | ng·h/mL | 1120
C=CC(=O)Nc1cc(-c2cc3c(cn2)cc(-c2c(Cl)c(OC)cc(OC)c2Cl)c2nccn23)c(OC)cc1N1CCN(C2CC2)CC1 | ng·h/mL | 3940

Now consider the entry below.
Q: Please supply the value of reported AUC(0-inf) for the item C=CC(=O)Nc1cc(-c2cc3c(cn2)cc(-c2c(Cl)c(OC)cc(OC)c2Cl)c2nccn23)c(OC)cc1N1C[C@@H]2C[C@H]1CO2
Result: 3050

====

measuredOn: FGFR-4 kinase (Homo sapiens, UniProt P22455)
Sequence (P22455 22-802): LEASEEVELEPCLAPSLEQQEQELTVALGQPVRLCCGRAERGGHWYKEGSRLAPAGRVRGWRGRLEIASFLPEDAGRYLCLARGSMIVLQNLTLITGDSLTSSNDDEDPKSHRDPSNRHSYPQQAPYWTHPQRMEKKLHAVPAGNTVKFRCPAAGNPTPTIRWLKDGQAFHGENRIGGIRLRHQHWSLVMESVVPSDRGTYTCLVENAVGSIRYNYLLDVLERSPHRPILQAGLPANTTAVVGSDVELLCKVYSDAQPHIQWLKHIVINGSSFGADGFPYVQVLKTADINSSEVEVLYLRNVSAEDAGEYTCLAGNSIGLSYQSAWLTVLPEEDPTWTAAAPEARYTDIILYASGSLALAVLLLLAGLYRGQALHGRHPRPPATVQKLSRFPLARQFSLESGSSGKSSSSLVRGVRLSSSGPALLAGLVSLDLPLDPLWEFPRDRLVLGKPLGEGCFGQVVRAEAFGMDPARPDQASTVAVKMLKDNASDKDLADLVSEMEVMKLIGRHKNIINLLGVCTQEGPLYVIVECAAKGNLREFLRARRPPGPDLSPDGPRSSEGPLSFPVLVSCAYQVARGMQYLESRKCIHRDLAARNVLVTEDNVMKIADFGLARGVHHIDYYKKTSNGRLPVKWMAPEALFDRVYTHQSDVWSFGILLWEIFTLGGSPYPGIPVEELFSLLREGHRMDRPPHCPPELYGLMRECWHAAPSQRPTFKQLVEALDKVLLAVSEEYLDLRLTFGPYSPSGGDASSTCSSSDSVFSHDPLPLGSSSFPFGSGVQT
testDescription: FGFR-4 kinase activity, homogeneous time-resolved fluorescence (HTRF) method
Assay type: biochemical
conditionLabel: Table 2; ATP 25 μM, FGFR-4 kinase 1 nM; read-out: FGFR4 IC50
Protocol: 1. In vitro determination of the protein activity of compounds: The FGFR-4 kinase activity detection platform was established by the homogeneous time-resolved fluorescence (HTRF) method, and the activity of the compound was determined. […] After incubation in the incubator for 1 h, fluorescence values (excitation at 320 nm, detecting emitted light at 665 nm and 620 nm, and a ratio of the two as enzyme activity) were read on Envision (purchased from PerkinElmer). […]
assayEndpoint: pIC50
The meaning of pIC50 here: minus log10 of the concentration in molar units.

compound | valueObserved
C=CC(=O)Nc1cc(-c2cc3c(cn2)cc(-c2c(Cl)c(OC)cc(OC)c2Cl)c2nccn23)c(OC)cc1N1CCN(C2CC2)CC1 [Example 59] | 8.96
C=CC(=O)Nc1cc(-c2cc3c(cn2)cc(-c2c(Cl)c(OC)cc(OC)c2Cl)c2nccn23)c(OC)cc1N1CCN(C#N)CC1 [Example 60] | 9.05

Next compound, please.
Q: Name the recorded pIC50 of the item C=CC(=O)Nc1cc(-c2cc3c(cn2)cc(-c2c(Cl)c(OC)cc(OC)c2Cl)c2nccn23)c(OC)cc1N1CCOCC1 [Example 54] in your answer.
Result: 9.15
